Kindly supply the reported EC50 (read off the curve) values for the records listed here.
tgt: T1, cynomolgus monkey EL (cynomolgus monkey)
T1 construct: Heparin extract; also called cynomolgus EL; Cynomolgus EL
assayProtocol: ELISA: antibody captured on anti-mouse IgG-Fc plate, EL heparin extract added, detection with biotin anti-C2-tag antibody and HRP-streptavidin, A450

INPUT: Give EC50 (read off the curve) for 14A1 (antibody, mouse IgG1, V domains shown, mouse IgG1 from hybridoma) VH: QIQLVQSGPELKKPGETVKISCKASGYTFTNYGMNWVKQAPGKGLKWMGWINTYSGVPTYADDFKGRFAFSLETSASTAYLQINNFKNEDTATYFCARFSYYGRHYFDYWGQGTALTASS VL: DIVLTQSPASLAVSLGQRATISCKASQSVDYDGDSYMNWYQQKPGQPPKLLIYAASNLKSGIPARFSGSGSGTDFTLNIHPVEEEDAATYYCQQTTDDPPWTFGGGTKLEIK
OUTPUT: ~20 ng/mL

INPUT: Give EC50 (read off the curve) for 23H8 (antibody, mouse IgG2a, V domains shown, mouse IgG2a from hybridoma; also called 23H8 (mouse mAb)) VH: EVQLQQSGPELLKPGASVKISCKASGYTFTDNTIHWVKQSHGKSLEWIGHINPYYGGTNNNEKFKDKATLTVDKSSSTAYMELRSLTSEDSAIYYCARKGIYYSSPFDYWGQGTTLTVSS VL: DIQMTQTTSSLSASLGDRVTISCRASQDINNYLNWYQQKPDGTVKLLISYTSKLHSGVPSRFSGSGSGTDYSLTISNLEREDFATYFCQQGNTLPFTFGSGTNLEIK
OUTPUT: ~8 ng/mL

INPUT: Give EC50 (read off the curve) for 16B3 (antibody, mouse IgG2a, V domains shown, mouse IgG2a from hybridoma; also called 16B3 (mouse mAb)) VH: DVKLVESGGGLVQPGGSLKLSCTASGFTFSGYTMSWVRQTPEKRLELVAEISFARDRAFYPDTVKGRFTISRDNAKNTLYLQMSSLKSEDTAMYYCTRLGGRNHDYWYFDVWGTGTTVTVSS VL: DIVLTQSPTSLAVSPGQRATISCRASESVEYYGTSLMQWYQQKPGQRPQLLIYAASNVESGVPARFSGSGSGTDFSLNIHPVEEDDIAVYFCQQSWKVPFTFGSGTKLEIK
OUTPUT: ~4 ng/mL
